Assay: Acute toxicity (LD50) in rats
Details: rat, in vivo, po, male rat; 14 days of observation; with 5% confidence interval
reported.endpoint: LD50 at 336 h (mg/kg)
Return type: number; implicit unit mg/kg.

Record request: LD50 at 336 h value, item Cc1ccc(Nc2nccs2)c(O)c1.Cl 2950

---

Tested on: prostanoid pathways (thromboxane B2) in rabbit platelets
Test: Inhibition of the metabolism of [14C]arachidonate in rabbit platelets (disappearance of TXB2)
Assay type: cell-based
Settings: Oryctolagus cuniculus, Platelet; 100 μM
Description: 1.2--Inhibition of the metabolism of [^14 C]arachidonate in rabbit platelets 12 ml of blood are withdrawn nitracardially into ACD (anticoagulant consisting of an aqueous solution containing 0.27 g of citric acid, 0.5 g of disodium citrate and 0.02 g of glucose for 20 ml of water) in a proportion of 1 volume of ACD for 6 volumes of blood. […] After extraction with ethyl acetate, the metabolites of [^14 C]arachidonate are separated by thin layer chromatography and quantified using a radio-scanner. […]
Reported inhibition at 100 µM values for the following molecules.
Return type: number; implicit unit %.

Observe how each entry below is paired with its result.
molecule: Oc1ccc(Cl)cc1Nc1nccs1
system.name: prostanoid pathways (thromboxane B2) in rabbit platelets
inhibition at 100 µM / %: 100
//
molecule: Cc1ccc(Nc2nccs2)c(O)c1.Cl [Compound 3, hydrochloride]
system.name: prostanoid pathways (thromboxane B2) in rabbit platelets
inhibition at 100 µM / %: 100
//
molecule: Oc1cccnc1Nc1nccs1
system.name: prostanoid pathways (thromboxane B2) in rabbit platelets
inhibition at 100 µM / %: 36

Now turn to the next molecule.
Record request: inhibition at 100 µM value, item Oc1ccccc1Nc1nccs1 91
